Reported values of IC50 for individual entries
Target: Epidermal growth factor receptor (Homo sapiens)
Sequence (P00533 whole entry, the tested form may be a part): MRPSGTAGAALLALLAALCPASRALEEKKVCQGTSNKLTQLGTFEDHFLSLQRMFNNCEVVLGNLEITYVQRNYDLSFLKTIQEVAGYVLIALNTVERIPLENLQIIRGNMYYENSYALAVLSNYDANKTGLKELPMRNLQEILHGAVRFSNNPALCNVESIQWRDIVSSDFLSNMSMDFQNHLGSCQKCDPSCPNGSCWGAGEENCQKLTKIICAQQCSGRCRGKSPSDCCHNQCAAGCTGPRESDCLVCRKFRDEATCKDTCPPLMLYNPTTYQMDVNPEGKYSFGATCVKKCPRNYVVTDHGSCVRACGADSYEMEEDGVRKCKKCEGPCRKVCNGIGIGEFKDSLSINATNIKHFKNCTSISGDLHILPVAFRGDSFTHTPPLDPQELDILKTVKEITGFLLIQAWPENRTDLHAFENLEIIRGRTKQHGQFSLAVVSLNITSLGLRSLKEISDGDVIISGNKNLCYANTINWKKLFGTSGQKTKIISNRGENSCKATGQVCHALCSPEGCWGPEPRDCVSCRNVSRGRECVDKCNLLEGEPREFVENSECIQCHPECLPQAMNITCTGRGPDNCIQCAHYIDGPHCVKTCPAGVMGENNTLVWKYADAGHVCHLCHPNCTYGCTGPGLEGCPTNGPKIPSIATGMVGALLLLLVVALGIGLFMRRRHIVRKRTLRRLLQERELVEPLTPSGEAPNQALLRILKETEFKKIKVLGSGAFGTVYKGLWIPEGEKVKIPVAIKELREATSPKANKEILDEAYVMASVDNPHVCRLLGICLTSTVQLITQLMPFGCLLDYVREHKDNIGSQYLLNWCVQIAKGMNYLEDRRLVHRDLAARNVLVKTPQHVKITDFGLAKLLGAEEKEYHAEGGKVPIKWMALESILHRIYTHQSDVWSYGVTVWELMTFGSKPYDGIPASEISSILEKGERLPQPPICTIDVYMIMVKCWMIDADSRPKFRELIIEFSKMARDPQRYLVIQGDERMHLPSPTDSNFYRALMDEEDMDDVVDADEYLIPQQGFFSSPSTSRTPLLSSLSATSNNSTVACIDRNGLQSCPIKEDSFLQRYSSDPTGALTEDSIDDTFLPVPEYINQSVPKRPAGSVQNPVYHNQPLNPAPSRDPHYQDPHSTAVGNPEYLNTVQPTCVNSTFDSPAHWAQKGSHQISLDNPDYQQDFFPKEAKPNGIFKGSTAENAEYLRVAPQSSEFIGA
Experiment: Inhibition of His-tagged EGFR cytoplasmic domain (645-1186 aa) (unknown origin) assessed as inhibition of autophosphorylation by TR-fluorometry
Settings: read-out: pIC50 (converted)
Expressed in µM, but write only the number.

Known results for compounds:
COMPOUND | IC50 / µM
CC(=O)N1N=C(c2ccccc2)CC1c1ccc(C(=O)OCCn2c([N+](=O)[O-])cnc2C)cc1 (centres undefined) | 9.59
CCOc1ccc(C2=NN(C(C)=O)C(c3ccc(C(=O)OCCn4c([N+](=O)[O-])cnc4C)cc3)C2)cc1 (centres undefined) | 15.2
CC(=O)N1N=C(c2ccc(Cl)cc2)CC1c1ccc(C(=O)OC(C)Cn2c([N+](=O)[O-])cnc2C)cc1 (centres undefined) | 9.27

Attention now turns to another entry.
Prompt: # lookup: Epidermal growth factor receptor (Homo sapiens) IC50, key = COc1ccc(C2=NN(C(C)=O)C(c3ccc(C(=O)OC(C)Cn4c([N+](=O)[O-])cnc4C)cc3)C2)cc1 (centres undefined)
Response: 21.3

----------
Test system: HepG2
Experiment: Antiproliferative activity against human HepG2 cells after 12 hrs by MTT assay
Type: functional, cell-based
Conditions: HepG2, 12 h
Measured IC50 of individual entries
Respond numerically; units are µM and should not be typed.

Record excerpt, results attached:
COMPOUND | SYSTEM | NUMERIC VALUE
CC(=O)N1N=C(c2ccc(I)cc2)CC1c1ccc(C(=O)OC(C)Cn2c([N+](=O)[O-])cnc2C)cc1 (stereo unspecified) | HepG2 | 9.98
CC(=O)N1N=C(c2ccc(C)cc2)CC1c1ccc(C(=O)OC(C)Cn2c([N+](=O)[O-])cnc2C)cc1 (stereo unspecified) | HepG2 | 58.1
CC(=O)N1N=C(c2ccc(Cl)cc2)CC1c1ccc(C(=O)OCCn2c([N+](=O)[O-])cnc2C)cc1 (stereo unspecified) | HepG2 | 3.31
CC(=O)N1N=C(c2ccc(F)cc2)CC1c1ccc(C(=O)OCCn2c([N+](=O)[O-])cnc2C)cc1 (stereo unspecified) | HepG2 | 1.89
CC(=O)N1N=C(c2ccc([N+](=O)[O-])cc2)CC1c1ccc(C(=O)OC(C)Cn2c([N+](=O)[O-])cnc2C)cc1 (stereo unspecified) | HepG2 | 3.62

Prompt: Return value of IC50 for input CC(=O)N1N=C(c2ccccc2)CC1c1ccc(C(=O)OCCn2c([N+](=O)[O-])cnc2C)cc1 (stereo unspecified) , no commentary.
Response: 42.2

Prompt: Retrieve IC50 measured for CC(=O)N1N=C(c2ccc(Cl)cc2)CC1c1ccc(C(=O)OC(C)Cn2c([N+](=O)[O-])cnc2C)cc1 (stereo unspecified) and print it.
Response: 12.2

Prompt: Note down IC50 recorded for CC(=O)N1N=C(c2ccc(C(F)(F)F)cc2)CC1c1ccc(C(=O)OC(C)Cn2c([N+](=O)[O-])cnc2C)cc1 (stereo unspecified)
Response: 2.21

Prompt: Could you please provide reported IC50 for CC(=O)N1N=C(c2ccc(I)cc2)CC1c1ccc(C(=O)OCCn2c([N+](=O)[O-])cnc2C)cc1 (stereo unspecified) ? Thanks!
Response: 6.28

Prompt: Give the value of IC50 reported for the following: COc1ccc(C2=NN(C(C)=O)C(c3ccc(C(=O)OC(C)Cn4c([N+](=O)[O-])cnc4C)cc3)C2)cc1 (stereo unspecified)
Response: 25.2

Prompt: Note IC50 for the compound shown: CS(=O)(=O)CCNCc1ccc(-c2ccc3ncnc(Nc4ccc(OCc5cccc(F)c5)c(Cl)c4)c3c2)o1 [LAPATINIB]
Response: 0.27
